- Test system: ELAM
- test protocol: ELISA for cell surface molecules: inhibition of ELAM expression on IL-1β stimulated HUVEC's
- Format: cell-based
- condition details: Homo sapiens, @ 1 μg/mL
attribute measured: inhibition at 1 µg/mL (%)
Write down the numeric answer in % and omit the unit.

[Q] inhibition at 1 µg/mL lookup needed for [O-][S+](Cc1ccccc1)c1nnc(-c2ccccc2O)o1 (stereo not shown) , thanks.
[A] 20

[Q] // same read-out, input: COc1c(C)cnc(C[S+]([O-])c2nnc(-c3ccccc3O)o2)c1C (stereo not shown)
[A] 30

[Q] Another molecule to check: [O-][S+](Cc1ccccc1)c1nnc(-c2ccccn2)o1 (stereo not shown)
[A] 50

[Q] Same question, COc1c(C)cnc(C[S+]([O-])c2nnc(-c3cccs3)o2)c1C (stereo not shown) this time
[A] 25

[Q] Also COc1c(C)cnc(C[S+]([O-])c2nnc(-c3cccn3C)o2)c1C (stereo not shown) , if possible.
[A] 25

[Q] Query [O-][S+](Cc1ccccn1)c1nnc(-c2ccccn2)o1 (stereo not shown) next
[A] 50

[Q] // same read-out, input: [O-][S+](Cc1ccccc1)c1nnc(-c2cccs2)o1 (stereo not shown)
[A] 20

====

- Tested on: VCAM
- test protocol: ELISA for cell surface molecules: inhibition of VCAM expression on IL-1β stimulated HUVEC's
- Format: cell-based
- condition details: Homo sapiens, @ 3 μg/ml
- Description: The following were used in an ELISA for cell surface molecules: Costar 96-well TC plates, 2% gelatin, 1% BSA-Dulbecco's PBS w/CaMg^++, IL-1β, primary antibody e.g., 7A9 for ELAM (EP 505749) secondary biotinylated goat anti-mouse IgG/IgM, streptavidin-peroxidase, OPD substrate tablets and 30% hydrogen peroxide. […] Substrate solution (OPD tablets, citric acid buffer and hydrogen peroxide solution) was prepared and added at 100 μl/well. […] Plates were read for absorbance values at 492 nm. […]
attribute measured: inhibition at 3 µg/mL (%)
Number in %, nothing else.

Past entries and their recorded results:
COc1c(C)cnc(C[S+]([O-])c2nnc(-c3cccc(C(F)(F)F)c3)o2)c1C (stereo not drawn) | 25
COc1c(C)cnc(C[S+]([O-])c2nnc(-c3ccc(C(F)(F)F)cc3)o2)c1C (stereo not drawn) | 15
[O-][S+](Cc1ccccn1)c1nnc(C23CC4CC(CC(C4)C2)C3)o1 (stereo not drawn) | 30

[Q] Consider the compound shown here: Cc1nnc([S+]([O-])Cc2ccccn2)o1 (stereo not drawn) What is its recorded inhibition at 3 µg/mL?
[A] 40

[Q] And then [O-][S+](Cc1ccccc1)c1nnc(-c2cc(-c3ccccc3)nc3ccccc23)o1 (stereo not drawn) , what is it?
[A] 10

[Q] Quick one: CCCc1nnc([S+]([O-])Cc2ncc(C)c(OC)c2C)o1 (stereo not drawn)
[A] 70

====

Listing of recorded inhibition at 3 µg/mL by entry.
- Tested on: VCAM
- test protocol: ELISA for cell surface molecules: inhibition of VCAM expression on IL-1β stimulated HUVEC's
- Assay type: cell-based
- condition details: Homo sapiens, @ 3 μg/ml
Give just the number in %; leave the unit off.

[O-][S+](Cc1ccccc1)c1nnc(-c2nc(-c3ccccc3)cs2)o1 (stereo not drawn) | 50
Cc1nnc([S+]([O-])Cc2nccn2Cc2ccccc2)o1 (stereo not drawn) | 100

[Q] # returns recorded inhibition at 3 µg/mL (system: VCAM) for CCCCc1nnc([S+]([O-])Cc2ncc(C)c(OC)c2C)o1 (stereo not drawn)
[A] 20

[Q] // query: Cc1nnc([S+]([O-])Cc2ccccc2)o1 (stereo not drawn)
[A] 25

[Q] Okay, and COc1c(C)cnc(C[S+]([O-])c2nnc(-c3ccccc3)o2)c1C (stereo not drawn) ?
[A] 100

[Q] Follow-up entry: CCc1nnc([S+]([O-])Cc2ncc(C)c(OC)c2C)o1 (stereo not drawn)
[A] 50

[Q] Can you check COc1c(C)cnc(C[S+]([O-])c2nnc(C)o2)c1C (stereo not drawn) next?
[A] 65

[Q] Lookup [O-][S+](Cc1ccccn1)c1nnc(-c2cccnc2)o1 (stereo not drawn)
[A] 80

[Q] Okay, and [O-][S+](Cc1ccccn1)c1nnc(-c2ccncc2)o1 (stereo not drawn) ?
[A] 100

====

- Test system: ELAM
- test protocol: ELISA for cell surface molecules: inhibition of ELAM expression on IL-1β stimulated HUVEC's
- Assay type: cell-based
- condition details: Homo sapiens, @ 3 μg/ml
Label Yes when inhibition at 3 µg/mL is at or above 40%; anything below gets No.

# count of solved cases: 5
Cc1nnc([S+]([O-])Cc2ccccn2)o1 (stereo not drawn) | No
Cc1nnc([S+]([O-])Cc2ccccc2)o1 (stereo not drawn) | No
Cc1nnc([S+]([O-])Cc2nccn2Cc2ccccc2)o1 (stereo not drawn) | Yes
CCc1nnc([S+]([O-])Cc2ncc(C)c(OC)c2C)o1 (stereo not drawn) | No
CCCc1nnc([S+]([O-])Cc2ncc(C)c(OC)c2C)o1 (stereo not drawn) | Yes

Now examine the next entry.
[Q] Reported inhibition at 3 µg/mL reaches at least 40% for COc1c(C)cnc(C[S+]([O-])c2nnc(C)o2)c1C (stereo not drawn) ?
[A] Yes

====

- System: Concanavalin A (ConA)-induced liver injury
- test protocol: Concanavalin A (ConA)-induced liver injury in mice, serum SGOT
- Format: in vivo, C57BL/6 mice
- condition details: Mus musculus, ip; 50 mg/kg i.p.; ConA 15 mg/kg i.v., 17 hours; read-out: SGOT (% decrease)
attribute measured: inhibition in vivo at 50 mg/kg (%)
Quick reminder: number only, in %, skip the unit.

c1ccc(CSc2nnc(-c3cccnc3)o2)cc1 [Compound 48] | 51
[O-][S+](Cc1ccccc1)c1nnc(-c2cccnc2)o1 (centres unmarked) [Compound 101] | 68
COc1c(C)cnc(CSc2nnc(-c3ccccc3O)o2)c1C [Compound 60] | 60
COc1c(C)cnc(C[S+]([O-])c2nnc(-c3ccccc3O)o2)c1C (centres unmarked) [Compound 113] | 80

[Q] Fill blank: measured inhibition in vivo at 50 mg/kg of the compound COc1ccnc2c1CCCCC2Sc1nnc(C)o1 (centres unmarked) [Compound 19] is ____.
[A] 87

[Q] Continue with COc1c(C)cnc(C[S+]([O-])c2nnc(C)o2)c1C (centres unmarked) [Compound 70]
[A] 82

[Q] Ok, now COc1c(C)cnc(CSc2nnc(-c3cccs3)o2)c1C [Compound 35]
[A] 45

[Q] Next: COc1c(C)cnc(C[S+]([O-])c2nnc(-c3cccs3)o2)c1C (centres unmarked) [Compound 89]
[A] 95

[Q] Try this compound too: COc1ccnc2c1CCCCC2Sc1nnc(-c2nc(-c3ccccc3)cs2)o1 (centres unmarked) [Compound 69]
[A] 30

[Q] Follow-up entry: COc1c(C)cnc(CSc2nnc(C)o2)c1C [Compound 16]
[A] 85

[Q] Entry COc1c(C)cnc(CSc2nnc(-c3nc(-c4ccccc4)cs3)o2)c1C [Compound 67] please
[A] 55
